Here the recorded Ki is given for each entry.
- targetEntity: ERα (Homo sapiens, UniProt P03372)
- testProtocol: Fluorescence polarization competition assay: antagonistic potency and relative binding affinity
- measurementContext: calculated antagonistic (inhibitory) constant; read-out: Ka ERα
Give just the number in nM; leave the unit off.

Answered examples (6):
>>> observed("CC(=O)c1cc(C(=O)OC2C=CC(=O)OC(O)CCCC=CC3CC(O)CC32)ccc1OCCN1C(=O)CCC1=O (stereo not shown) [Compound 3DPQ-5]")
0.18
>>> observed("CC(=O)c1cc(C(=O)O[C@@H]2/C=C/C(=O)O[C@@H](O)CCC/C=C/[C@@H]3C[C@H](O)C[C@H]32)ccc1OCCN1CCCC(O)C1=O (stereo partly shown) [Compound 3DPQ-12]")
0.09
>>> observed("CC(=O)c1cc(C(=O)O[C@@H]2/C=C/C(=O)O[C@@H](O)CCC/C=C/[C@@H]3C[C@H](O)C[C@H]32)ccc1OCCN(C)C [Compound 3DPQ-2]")
0.12
>>> observed("CC(=O)c1cc(C(=O)O[C@@H]2/C=C/C(=O)O[C@@H](O)CCC/C=C/[C@@H]3C[C@H](O)C[C@H]32)ccc1OCCN1CC(C(=O)O)=CCC1=O [Compound 3DPQ-9]")
0.1
>>> observed("CC(=O)c1cc(C(=O)OC2/C=C/C(=O)O[C@@H](O)CCC/C=C/[C@@H]3C[C@H](O)C[C@@H]23)ccc1OCCN1CCC=C(C(=O)O)C1 (stereo partly shown) [Compound 3DPQ-3]")
0.1
>>> observed("CNCCOc1ccc(C(=O)O[C@@H]2/C=C/C(=O)O[C@@H](O)CCC/C=C/[C@@H]3C[C@H](O)C[C@H]32)cc1C(C)=O [Compound 3DPQ-1]")
0.13

Now consider the entry below.
Data request: Query for ERα (Homo sapiens, UniProt P03372): what Ki does the record show for CC(=O)c1cc(C(=O)O[C@@H]2/C=C/C(=O)O[C@@H](O)CCC/C=C/[C@@H]3C[C@H](O)C[C@H]32)ccc1OCCN1CCCC2CCCNC21 (stereo partly shown) [Compound 3DPQ-8] ?
Data returned: 0.18

* * *

- testProtocol: physchem
- measurementContext: pH 7.4
observedProperty: logD at 30 min
Would you mind answering with just the numeric figure?

Data request: Fill blank: measured logD at 30 min of the molecule O=C(c1ccc(OCCN2CCCCC2)cc1)c1c(-c2ccc(O)cc2)sc2cc(O)ccc12 [Ral., Raloxifene, reference compound] is ____.
Data returned: 2.39

* * *

- testProtocol: Plasma protein binding determination
- Format: in vitro ADME, rat
- measurementContext: rat, plasma
observedProperty: fraction unbound at 50 mg/kg bwt
Would you mind answering with just the numeric figure?

Data request: Fill blank: measured fraction unbound at 50 mg/kg bwt of the compound O=C(c1ccc(OCCN2CCCCC2)cc1)c1c(-c2ccc(O)cc2)sc2cc(O)ccc12 [Ral., Raloxifene, reference compound] is ____.
Data returned: 0.019

* * *

- Test system: MCF-7 cells
- testProtocol: Cell cycle distribution by flow cytometry
- Format: cell-based, human
- measurementContext: 1 nM, 24 h
observedProperty: Cell Cycle (%) S

>>> observed("CNCCOc1ccc(C(=O)O[C@@H]2/C=C/C(=O)O[C@@H](O)CCC/C=C/[C@@H]3C[C@H](O)C[C@H]32)cc1C(C)=O")
"10.69 ± 1.42 *^,†,‡,§ %"
>>> observed("CC(=O)c1cc(C(=O)O[C@@H]2/C=C/C(=O)O[C@@H](O)CCC/C=C/[C@@H]3C[C@H](O)C[C@H]32)ccc1OCCN1CCCC1")
"14.02 ± 1.43 *^,†,‡,§ %"

Data request: Query for MCF-7 cells: what Cell Cycle (%) S does the record show for O=C(c1ccc(OCCN2CCCCC2)cc1)c1c(-c2ccc(O)cc2)sc2cc(O)ccc12 [Ral., Raloxifene, reference compound] ?
Data returned: 16.37 ± 0.46 *^,†,‡ %

Data request: Query for MCF-7 cells: what Cell Cycle (%) S does the record show for CC(=O)c1cc(C(=O)O[C@@H]2/C=C/C(=O)O[C@@H](O)CCC/C=C/[C@@H]3C[C@H](O)C[C@H]32)ccc1OCCN(C)C ?
Data returned: 12.59 ± 1.57 *^,†,‡,§ %

Data request: Query for MCF-7 cells: what Cell Cycle (%) S does the record show for C[C@]12CC[C@@H]3c4ccc(O)cc4CC[C@H]3[C@@H]1CC[C@@H]2O [Compound E2, 17β-estradiol, reference compound] ?
Data returned: 29.52 ± 0.46 *^,‡,§ %

Data request: Query for MCF-7 cells: what Cell Cycle (%) S does the record show for CC(=O)c1cc(C(=O)O[C@@H]2/C=C/C(=O)O[C@@H](O)CCC/C=C/[C@@H]3C[C@H](O)C[C@H]32)ccc1OCCN1CC(C(=O)O)=CCC1=O ?
Data returned: 13.68 ± 1.74 *^,†,‡,§ %

* * *

- testProtocol: Liver oxidative stress markers after treatment of MNU-induced rats
- Assay type: in vivo, Wistar rats
- measurementContext: reduced glutathione, liver, dose 5 mg/kg
observedProperty: GSH (mg/g)
Give just the number in mg/g; leave the unit off.

Answered examples (2):
>>> observed("CC(=O)c1cc(C(=O)O[C@@H]2/C=C/C(=O)O[C@@H](O)CCC/C=C/[C@@H]3C[C@H](O)C[C@H]32)ccc1OCCN(C)C [Compound 3DPQ-2]")
9.96
>>> observed("CC(=O)c1cc(C(=O)O[C@@H]2/C=C/C(=O)O[C@@H](O)CCC/C=C/[C@@H]3C[C@H](O)C[C@H]32)ccc1OCCS(=O)(=O)O [Compound 3DPQ-4]")
9.87

Now consider the entry below.
Data request: Fill blank: measured GSH of the compound CC/C(=C(\c1ccc(O)cc1)c1ccc(OCCN(C)C)cc1)c1ccccc1 [Compound 4-OHT., 4-hydroxytamoxifen, reference compound] is ____.
Data returned: 4.67

* * *

- Tested on: MCF-7 cell lines
- testProtocol: MTT antiproliferative assay
- Type: cell-based, human
- measurementContext: ratio of IC50 values
observedProperty: MCF-7 antiproliferative potency, fold higher than Ral
Don't forget the unit after the value.

>>> observed("CC(=O)c1cc(C(=O)OC2/C=C/C(=O)O[C@@H](O)CCC/C=C/[C@@H]3C[C@H](O)C[C@@H]23)ccc1OCCN1CCC=C(C(=O)O)C1 (stereo partly drawn)")
"1.43 fold"
>>> observed("CNCCOc1ccc(C(=O)O[C@@H]2/C=C/C(=O)O[C@@H](O)CCC/C=C/[C@@H]3C[C@H](O)C[C@H]32)cc1C(C)=O")
"1.17 fold"

Data request: Fill blank: measured MCF-7 antiproliferative potency, fold higher than Ral of the molecule CC(=O)c1cc(C(=O)O[C@@H]2/C=C/C(=O)O[C@@H](O)CCC/C=C/[C@@H]3C[C@H](O)C[C@H]32)ccc1OCCN1CC(C(=O)O)=CCC1=O is ____.
Data returned: 1.46 fold

* * *

- targetEntity: ERα (Homo sapiens)
- Sequence (P03372 1-595): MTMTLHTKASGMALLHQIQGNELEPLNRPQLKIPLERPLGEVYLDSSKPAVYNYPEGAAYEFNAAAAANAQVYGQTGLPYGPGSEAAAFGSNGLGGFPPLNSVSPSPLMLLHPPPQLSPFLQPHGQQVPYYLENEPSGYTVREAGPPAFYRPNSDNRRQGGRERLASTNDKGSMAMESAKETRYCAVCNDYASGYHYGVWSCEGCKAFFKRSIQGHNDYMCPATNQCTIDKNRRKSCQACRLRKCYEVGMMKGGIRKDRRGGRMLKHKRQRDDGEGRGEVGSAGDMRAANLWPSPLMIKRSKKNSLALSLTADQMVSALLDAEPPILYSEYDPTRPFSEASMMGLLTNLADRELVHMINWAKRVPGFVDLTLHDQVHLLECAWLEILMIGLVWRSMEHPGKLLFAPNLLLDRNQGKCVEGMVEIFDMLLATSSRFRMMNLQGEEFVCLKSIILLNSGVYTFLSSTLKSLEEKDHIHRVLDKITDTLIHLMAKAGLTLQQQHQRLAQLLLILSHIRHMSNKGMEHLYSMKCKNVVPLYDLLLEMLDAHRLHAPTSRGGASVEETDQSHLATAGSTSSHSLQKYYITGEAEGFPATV
- testProtocol: Fluorescence polarization competition assay: antagonistic potency and relative binding affinity
- measurementContext: ratio of IC50 values
observedProperty: ERα potency, fold more potent than 4-OHT (fold)
Give just the number in fold; leave the unit off.

Answered examples (3):
>>> observed("CC(=O)c1cc(C(=O)O[C@@H]2/C=C/C(=O)O[C@@H](O)CCC/C=C/[C@@H]3C[C@H](O)C[C@H]32)ccc1OCCN1Cc2cccnc2C1")
1.33
>>> observed("CC(=O)c1cc(C(=O)O[C@@H]2/C=C/C(=O)O[C@@H](O)CCC/C=C/[C@@H]3C[C@H](O)C[C@H]32)ccc1OCCN1CCCC2CCCNC21 (stereo partly shown)")
1.38
>>> observed("CC(=O)c1cc(C(=O)OC2C=CC(=O)OC(O)CCCC=CC3CC(O)CC32)ccc1OCCN1C(=O)CCC1=O (stereo not shown)")
1.38

Data request: Fill blank: measured ERα potency, fold more potent than 4-OHT of the compound CC(=O)c1cc(C(=O)O[C@@H]2/C=C/C(=O)O[C@@H](O)CCC/C=C/[C@@H]3C[C@H](O)C[C@H]32)ccc1OCCN1CCCCC1 is ____.
Data returned: 1.45
